EXPERIMENTAL_SYSTEM: Amine oxidase [flavin-containing] B (Homo sapiens, UniProt P27338)
Sequence (P27338 whole entry): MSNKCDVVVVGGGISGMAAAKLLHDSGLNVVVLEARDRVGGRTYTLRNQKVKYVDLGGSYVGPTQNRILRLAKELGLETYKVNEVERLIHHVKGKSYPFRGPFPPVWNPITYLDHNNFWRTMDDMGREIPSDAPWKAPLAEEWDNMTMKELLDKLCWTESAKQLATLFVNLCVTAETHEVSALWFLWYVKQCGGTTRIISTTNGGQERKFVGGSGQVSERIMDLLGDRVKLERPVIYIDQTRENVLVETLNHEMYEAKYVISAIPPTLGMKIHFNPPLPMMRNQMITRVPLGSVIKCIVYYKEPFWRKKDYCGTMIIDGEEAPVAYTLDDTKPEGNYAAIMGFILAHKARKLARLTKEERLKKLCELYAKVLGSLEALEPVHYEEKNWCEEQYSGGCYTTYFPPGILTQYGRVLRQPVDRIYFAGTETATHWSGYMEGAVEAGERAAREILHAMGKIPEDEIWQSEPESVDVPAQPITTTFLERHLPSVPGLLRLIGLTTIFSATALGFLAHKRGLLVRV
TEST_DETAILS: biochemical
Format: cell-based, BTI-TN-5B1-4
Description: Inhibition of human MAO-B expressed in baculovirus infected BTI-TN-5B1-4 insect cells using p-tyramine as substrate assessed as hydrogen peroxide production by fluorimetric method
Entries and their IC50
Entry rule: numbers only, all in nM.

{"columns": ["ENTRY_SMILES", "UNIT_SPEC", "IC50"],
 "data": [
  ["C=CCC/C(C)=N\\Nc1nc(-c2ccccc2)c(C)s1", "nM", 8850],
  ["Cc1sc(NN=C2CCCCCC2)nc1-c1ccccc1", "nM", 1960],
  ["C/C(=N\\Nc1nc(-c2ccc3ccccc3c2)cs1)c1ccco1", "nM", 2290],
  ["Cc1sc(N/N=C/c2cccnc2)nc1-c1ccccc1", "nM", 2220],
  ["C/C(=N\\Nc1nc(-c2ccccc2)c(C)s1)c1ccco1", "nM", 2100]
]}

Shift focus to the following entry.
INPUT: Report IC50 from Amine oxidase [flavin-containing] B (Homo sapiens, UniProt P27338) testing of CCC(CC)=NNc1nc(-c2ccc3ccccc3c2)cs1
OUTPUT: 2320
